Target: hMAO-B (Homo sapiens)
Construct: purchased Sigma-Aldrich (Steinheim, Germany)
Assay: MAO-B inhibition assay, fluorometric (Amplex Red / horseradish peroxidase-coupled)
Format: biochemical
Conditions: 10^−4 M
Measurement type: inhibition at 100 µM (%)
API: value field is a number in %; no unit string.

NS(=O)(=O)c1ccc(N(Cc2ccccc2)C(=O)CSc2ccccn2)cc1 :: 83.3
COc1ccc2sc(SCC(=O)N(Cc3ccc(C)cc3)c3ccc(S(N)(=O)=O)cc3)nc2c1 :: 36
Cc1ccc(CN(C(=O)CSc2nncn2C)c2ccc(S(N)(=O)=O)cc2)cc1 :: 43.8
NS(=O)(=O)c1ccc(N(Cc2ccccc2)C(=O)CSc2nnnn2-c2ccccc2)cc1 :: 48.4
Cc1ccc(CN(C(=O)CSc2ccccn2)c2ccc(S(N)(=O)=O)cc2)cc1 :: 35.6

input: # query: inhibition at 100 µM | item `Cc1ccc(CN(C(=O)CSc2nc3ccccc3o2)c2ccc(S(N)(=O)=O)cc2)cc1` | system: hMAO-B (Homo sapiens)
output: 33.1

input: Then what about the molecule `NS(=O)(=O)c1ccc(N(Cc2ccccc2)C(=O)CSc2nc3ccccc3o2)cc1` ?
output: 47.3

input: Then what about the molecule `Cc1ccc(CN(C(=O)CSc2nnnn2C)c2ccc(S(N)(=O)=O)cc2)cc1` ?
output: 38.3

input: Then what about the molecule `Cc1nnc(SCC(=O)N(Cc2ccccc2)c2ccc(S(N)(=O)=O)cc2)s1` ?
output: 48.3

input: Then what about the molecule `COc1ccc2sc(SCC(=O)N(Cc3ccccc3)c3ccc(S(N)(=O)=O)cc3)nc2c1` ?
output: 45.1

input: Then what about the molecule `NS(=O)(=O)c1ccc(N(Cc2ccccc2)C(=O)CSc2nc3cc(Cl)ccc3s2)cc1` ?
output: 91.8

input: Then what about the molecule `Cn1ccnc1SCC(=O)N(Cc1ccccc1)c1ccc(S(N)(=O)=O)cc1` ?
output: 47

====

Target: hMAO-B (Homo sapiens, UniProt P27338)
Construct: purchased Sigma-Aldrich (Steinheim, Germany)
Test: MAO-B inhibition assay, fluorometric (Amplex Red / horseradish peroxidase-coupled)
Assay type: biochemical
Conditions: 10^−8 M
Kind request: treat 40% as inclusive, so inhibition at 0.01 µM at 40% or higher is class 1, anything lower is class 0.

Cn1nnnc1SCC(=O)N(Cc1ccccc1)c1ccc(S(N)(=O)=O)cc1 :: class 0
Cn1cnnc1SCC(=O)N(Cc1ccccc1)c1ccc(S(N)(=O)=O)cc1 :: class 0
NS(=O)(=O)c1ccc(N(Cc2ccccc2)C(=O)CSc2ccccn2)cc1 :: class 0
Cc1ccc(CN(C(=O)CSc2nc3cc(Cl)ccc3s2)c2ccc(S(N)(=O)=O)cc2)cc1 :: class 0

Turning now to a further compound:
input: Determine whether measured inhibition at 0.01 µM meets or exceeds 40% for `NS(=O)(=O)c1ccc(N(Cc2ccccc2)C(=O)CSc2nc3cc(Cl)ccc3s2)cc1`
output: class 1

====

Quick reference for inhibition at 1000 µM among some compounds
Target: hMAO-B (Homo sapiens, UniProt P27338)
Construct: purchased Sigma-Aldrich (Steinheim, Germany)
Assay: MAO-B inhibition assay, fluorometric (Amplex Red / horseradish peroxidase-coupled)
Type: biochemical
Details: 10^−3 M
API: value field is a number in %; no unit string.

Example entries begin here.
Cc1ccc(CN(C(=O)CSc2nnnn2-c2ccccc2)c2ccc(S(N)(=O)=O)cc2)cc1 [Compound 4o] :: 68.3
Cc1ccc(CN(C(=O)CSc2nc3cc(Cl)ccc3s2)c2ccc(S(N)(=O)=O)cc2)cc1 [Compound 4t] :: 92.6
NS(=O)(=O)c1ccc(N(Cc2ccccc2)C(=O)CSc2nc3cc(Cl)ccc3s2)cc1 [Compound 4i] :: 94.9

input: # query: inhibition at 1000 µM | item Cc1ccc(CN(C(=O)CSc2nc3ccccc3o2)c2ccc(S(N)(=O)=O)cc2)cc1 [Compound 4r] | system: hMAO-B (Homo sapiens, UniProt P27338)
output: 67.5

input: Then what about the compound Cc1ccc(CN(C(=O)CSc2nc3ccccc3s2)c2ccc(S(N)(=O)=O)cc2)cc1 [Compound 4s] ?
output: 72.7

====

Molecular target: hMAO-B (Homo sapiens, UniProt P27338)
Construct: purchased Sigma-Aldrich (Steinheim, Germany)
Assay: MAO-B inhibition assay, fluorometric (Amplex Red / horseradish peroxidase-coupled)
Type: biochemical
Details: 10^−4 M
Measurement type: inhibition at 100 µM (%)
API: value field is a number in %; no unit string.

Example entries begin here.
Cc1ccc(CN(C(=O)CSc2nc3ccccc3s2)c2ccc(S(N)(=O)=O)cc2)cc1 :: 40.3
Cn1nnnc1SCC(=O)N(Cc1ccccc1)c1ccc(S(N)(=O)=O)cc1 :: 79.7
Cn1cnnc1SCC(=O)N(Cc1ccccc1)c1ccc(S(N)(=O)=O)cc1 :: 86.3
Cc1ccc(CN(C(=O)CSc2nnnn2-c2ccccc2)c2ccc(S(N)(=O)=O)cc2)cc1 :: 30.3
NS(=O)(=O)c1ccc(N(Cc2ccccc2)C(=O)CSc2nc3ccccc3s2)cc1 :: 48.8
Cc1ccc(CN(C(=O)CSc2nnc(C)s2)c2ccc(S(N)(=O)=O)cc2)cc1 :: 40.1
Cc1ccc(CN(C(=O)CSc2nccn2C)c2ccc(S(N)(=O)=O)cc2)cc1 :: 39

input: Recorded inhibition at 100 µM of `Cc1ccc(CN(C(=O)CSc2nc3cc(Cl)ccc3s2)c2ccc(S(N)(=O)=O)cc2)cc1` , please.
output: 88.6

====

Sequence of the target: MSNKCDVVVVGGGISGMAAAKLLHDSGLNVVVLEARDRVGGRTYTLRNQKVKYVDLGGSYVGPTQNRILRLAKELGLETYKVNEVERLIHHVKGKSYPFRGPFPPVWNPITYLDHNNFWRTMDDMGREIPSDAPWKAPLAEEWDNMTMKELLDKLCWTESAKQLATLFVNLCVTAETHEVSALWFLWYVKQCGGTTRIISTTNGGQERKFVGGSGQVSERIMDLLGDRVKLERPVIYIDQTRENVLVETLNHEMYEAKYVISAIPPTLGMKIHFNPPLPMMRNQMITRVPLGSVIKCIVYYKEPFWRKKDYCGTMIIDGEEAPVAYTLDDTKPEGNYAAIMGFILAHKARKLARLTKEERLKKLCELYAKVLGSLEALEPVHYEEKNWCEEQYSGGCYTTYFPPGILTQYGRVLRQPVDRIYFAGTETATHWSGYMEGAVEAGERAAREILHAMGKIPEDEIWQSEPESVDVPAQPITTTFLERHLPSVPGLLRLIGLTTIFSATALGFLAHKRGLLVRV
Measurement type: Ki
Remember to quote the unit after the number.

input: Recorded Ki of NS(=O)(=O)c1ccc(N(Cc2ccccc2)C(=O)CSc2nc3cc(Cl)ccc3s2)cc1 [Compound 4i] , please.
output: 36 nM

====

Molecular target: hMAO-B (Homo sapiens, UniProt P27338)
Construct: purchased Sigma-Aldrich (Steinheim, Germany)
Assay: MAO-B inhibition assay, fluorometric (Amplex Red / horseradish peroxidase-coupled)
Type: biochemical
Details: 10^−3 M
Measurement type: inhibition at 1000 µM (%)
API: value field is a number in %; no unit string.

Cn1cnnc1SCC(=O)N(Cc1ccccc1)c1ccc(S(N)(=O)=O)cc1 :: 90.3
Cc1ccc(CN(C(=O)CSc2nnnn2C)c2ccc(S(N)(=O)=O)cc2)cc1 :: 72.2

input: Recorded inhibition at 1000 µM of `Cc1ccc(CN(C(=O)CSc2ccccn2)c2ccc(S(N)(=O)=O)cc2)cc1` , please.
output: 70.5

====

Quick reference for inhibition at 1 µM among some compounds
Biological target: hMAO-B (Homo sapiens, UniProt P27338)
Construct: purchased Sigma-Aldrich (Steinheim, Germany)
Assay: MAO-B inhibition assay, fluorometric (Amplex Red / horseradish peroxidase-coupled);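 also: fluorescence read at Ex 535 nm and Em 587 nm over 30 min, linear phase, inhibition relative to uninhibited control wells, IC50 from log concentration–response curves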
Type: biochemical
Settings: 10^−6 M
API: value field is a number in %; no unit string.

Example entries begin here.
NS(=O)(=O)c1ccc(N(Cc2ccccc2)C(=O)CSc2nc3cc(Cl)ccc3s2)cc1 [Compound 4i] :: 72.5
Cc1ccc(CN(C(=O)CSc2nc3cc(Cl)ccc3s2)c2ccc(S(N)(=O)=O)cc2)cc1 [Compound 4t] :: 74.7
NS(=O)(=O)c1ccc(N(Cc2ccccc2)C(=O)CSc2ccccn2)cc1 [Compound 4f] :: 73.2
Cn1nnnc1SCC(=O)N(Cc1ccccc1)c1ccc(S(N)(=O)=O)cc1 [Compound 4d] :: 70.9

input: Recorded inhibition at 1 µM of Cn1cnnc1SCC(=O)N(Cc1ccccc1)c1ccc(S(N)(=O)=O)cc1 [Compound 4b] , please.
output: 76.9

====

Quick reference for melting point among some compounds

Example entries begin here.
Cc1ccc(CN(C(=O)CSc2nc3cc(Cl)ccc3s2)c2ccc(S(N)(=O)=O)cc2)cc1 [Compound 4t] :: 109 to 111 °C
Cc1ccc(CN(C(=O)CSc2ccccn2)c2ccc(S(N)(=O)=O)cc2)cc1 [Compound 4p] :: 121 to 123 °C

input: Recorded melting point of Cc1ccc(CN(C(=O)CSc2nncn2C)c2ccc(S(N)(=O)=O)cc2)cc1 [Compound 4l] , please.
output: 229 to 231 °C

input: Then what about the compound Cc1nnc(SCC(=O)N(Cc2ccccc2)c2ccc(S(N)(=O)=O)cc2)s1 [Compound 4c] ?
output: 164 to 166 °C

input: Then what about the compound Cn1ccnc1SCC(=O)N(Cc1ccccc1)c1ccc(S(N)(=O)=O)cc1 [Compound 4a] ?
output: 137 to 139 °C

input: Then what about the compound Cc1ccc(CN(C(=O)CSc2nccn2C)c2ccc(S(N)(=O)=O)cc2)cc1 [Compound 4k] ?
output: 153 to 155 °C

input: Then what about the compound NS(=O)(=O)c1ccc(N(Cc2ccccc2)C(=O)CSc2nc3ccccc3o2)cc1 [Compound 4g] ?
output: 82 to 84 °C
